# systemName: T1, biotinylated hBLyS-ECD (human, UniProt Q9Y275 134-285, biotinylated with Biotin-X-X-NHS (molar ratio 7:1); sites not stated)
# T1 construct: also called biotinylated immunogen; biotinylated hBLvS-ECD
# T1 sequence (Q9Y275 134-285): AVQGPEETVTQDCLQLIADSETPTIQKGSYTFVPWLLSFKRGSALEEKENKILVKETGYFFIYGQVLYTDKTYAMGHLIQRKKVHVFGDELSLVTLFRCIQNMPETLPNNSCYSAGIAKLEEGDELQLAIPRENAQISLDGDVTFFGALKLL
# assayInfo: competition ELISA; competitor 35E6F7C3
assayMetric: inhibitory rate (%)
The response must be a number in % with no trailing unit.

93C6F10D3 (antibody, V domains shown, Mouse hybridoma antibody purified on Protein G) VH: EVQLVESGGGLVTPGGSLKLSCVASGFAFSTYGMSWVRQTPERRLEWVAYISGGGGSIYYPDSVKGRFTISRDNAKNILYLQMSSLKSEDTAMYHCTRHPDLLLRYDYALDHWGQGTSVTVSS VL: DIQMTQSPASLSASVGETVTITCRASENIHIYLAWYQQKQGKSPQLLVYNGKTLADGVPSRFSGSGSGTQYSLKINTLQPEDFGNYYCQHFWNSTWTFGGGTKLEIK ... 42

Any idea what its inhibitory rate (%) is? The binder is 111D10D6G3 (antibody, V domains shown, Mouse hybridoma antibody purified on Protein G) VH: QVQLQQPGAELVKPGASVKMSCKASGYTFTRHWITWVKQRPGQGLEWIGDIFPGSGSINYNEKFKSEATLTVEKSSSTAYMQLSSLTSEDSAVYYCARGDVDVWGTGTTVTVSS VL: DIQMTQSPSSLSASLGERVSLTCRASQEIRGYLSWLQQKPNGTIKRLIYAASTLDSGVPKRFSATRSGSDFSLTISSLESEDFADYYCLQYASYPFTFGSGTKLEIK
22
